# TEST METHOD NOTES: Biodistribution in BALB/c nude mice bearing A431-CCK2R/A431-mock xenografts
# Assay type: in vivo
# PARTICULARS: female, athymic BALB/c nude, mouse, kidneys, iv, 20 pmol, total radioactivity, xenografted BALB/c nude mice, i.v., ~20 pmol, 4 h p.i. (indium-111 or lutetium-177), mean ± SD n = 4; read-out: Uptake in kidneys

{"MOLECULE": "CCCC[C@@H](C(=O)N[C@@H](CC(=O)O)C(=O)N[C@@H](Cc1cccc2ccccc12)C(=O)NC)N(C)C(=O)[C@H](Cc1c[nH]c2ccccc12)NC(=O)CNC(=O)[C@H](Cc1ccc(O)cc1)NC(=O)[C@H](C)NC(=O)[C@@H](CCC(=O)O)NC(=O)CN1CCN(CC(=O)O)CCN(CC(=O)O)CCN(CC(=O)O)CC1 [[^111In]In-DOTA-MGS5[NHCH3], metal not drawn]", "VALUE UNITS": "%ID/g", "tissue uptake at 4 h": 4.42}
{"MOLECULE": "CCCC[C@@H](C(=O)N[C@@H](CC(=O)O)C(=O)N(C)[C@@H](Cc1cccc2ccccc12)C(N)=O)N(C)C(=O)[C@H](Cc1c[nH]c2ccccc12)NC(=O)CNC(=O)[C@H](Cc1ccc(O)cc1)NC(=O)[C@H](C)NC(=O)[C@@H](CCC(=O)O)NC(=O)CN1CCN(CC(=O)O)CCN(CC(=O)O)CCN(CC(=O)O)CC1 [[^111In]In-DOTA-[(N-Me)1Nal^8]MGS5, metal not drawn]", "VALUE UNITS": "%ID/g", "tissue uptake at 4 h": 6.33}
{"MOLECULE": "CCCC[C@@H](C(=O)N[C@@H](CC(=O)O)C(=O)N[C@@H](Cc1ccc2ccccc2c1)C(N)=O)N(C)C(=O)[C@H](Cc1c[nH]c2ccccc12)NC(=O)CNC(=O)[C@H](Cc1ccc(O)cc1)NC(=O)[C@H](C)NC(=O)[C@@H](CCC(=O)O)NC(=O)CN1CCN(CC(=O)O)CCN(CC(=O)O)CCN(CC(=O)O)CC1 [[^111In]In-DOTA-[2Nal^8]MGS5, metal not drawn]", "VALUE UNITS": "%ID/g", "tissue uptake at 4 h": 4.21}

----------
# TEST METHOD NOTES: Biodistribution in BALB/c nude mice bearing A431-CCK2R/A431-mock xenografts
# Format: in vivo
# PARTICULARS: female, athymic BALB/c nude, mouse, liver, iv, 20 pmol, total radioactivity, xenografted BALB/c nude mice, i.v., ~20 pmol, 4 h p.i. (indium-111 or lutetium-177), mean ± SD n = 4; read-out: Uptake in liver
Where a SMILES comes first, the peptide text is derived from it. [ ]: non-standard residue; d: D form. The star is where a group is joined. DOTA = O=C(O)CN1CCN(CC(=O)O)CCN(CC(=O)*)CCN(CC(=O)O)CC1; 1Nal = N[C@@H](Cc1cccc2ccccc12)C(=O)O; NMeNle = CCCC[C@H](NC)C(=O)O
Items are presented alongside their recorded tissue uptake at 4 h.
VALUE KIND: tissue uptake at 4 h (%ID/g)

{"COMPOUND": "CCCC[C@@H](C(=O)N[C@@H](CC(=O)O)C(=O)N(C)[C@@H](Cc1cccc2ccccc12)C(N)=O)N(C)C(=O)[C@H](Cc1c[nH]c2ccccc12)NC(=O)CNC(=O)[C@H](Cc1ccc(O)cc1)NC(=O)[C@H](C)NC(=O)[C@@H](CCC(=O)O)NC(=O)CN1CCN(CC(=O)O)CCN(CC(=O)O)CCN(CC(=O)O)CC1 [[^111In]In-DOTA-[(N-Me)1Nal^8]MGS5, metal not drawn]", "VALUE KIND": "tissue uptake at 4 h", "VALUE OBSERVED": 1.39}
{"COMPOUND": "CCCC[C@@H](C(=O)N[C@@H](CC(=O)O)C(=O)N[C@@H](Cc1cccc2ccccc12)C(N)=O)N(C)C(=O)[C@H](Cc1c[nH]c2ccccc12)NC(=O)CNC(=O)[C@H](Cc1ccc(O)cc1)NC(=O)[C@H](C)NC(=O)[C@@H](CCCCN)NC(=O)CN1CCN(CC(=O)O)CCN(CC(=O)O)CCN(CC(=O)O)CC1 [[^111In]In-DOTA-[DLys^1]MGS5, metal not drawn] ({DOTA}-[dK]AYGW[NMeNle]D[1Nal]-NH2)", "VALUE KIND": "tissue uptake at 4 h", "VALUE OBSERVED": 1.94}
{"COMPOUND": "CCCC[C@@H](C(=O)N[C@@H](CC(=O)O)C(=O)N[C@@H](Cc1ccc2ccccc2c1)C(N)=O)N(C)C(=O)[C@H](Cc1c[nH]c2ccccc12)NC(=O)CNC(=O)[C@H](Cc1ccc(O)cc1)NC(=O)[C@H](C)NC(=O)[C@@H](CCC(=O)O)NC(=O)CN1CCN(CC(=O)O)CCN(CC(=O)O)CCN(CC(=O)O)CC1 [[^111In]In-DOTA-[2Nal^8]MGS5, metal not drawn]", "VALUE KIND": "tissue uptake at 4 h", "VALUE OBSERVED": 0.66}
{"COMPOUND": "CCCC[C@@H](C(=O)N[C@@H](CC(=O)O)C(=O)N[C@@H](Cc1cccc2ccccc12)C(=O)NC)N(C)C(=O)[C@H](Cc1c[nH]c2ccccc12)NC(=O)CNC(=O)[C@H](Cc1ccc(O)cc1)NC(=O)[C@H](C)NC(=O)[C@@H](CCC(=O)O)NC(=O)CN1CCN(CC(=O)O)CCN(CC(=O)O)CCN(CC(=O)O)CC1 [[^111In]In-DOTA-MGS5[NHCH3], metal not drawn]", "VALUE KIND": "tissue uptake at 4 h", "VALUE OBSERVED": 0.36}
